# tested system: hMPV B2 F protein (his-tagged, not trypsin treated) (human metapneumovirus)
# protocol notes: ELISA on coated recombinant protein, OD 405 nm
quantity kind: EC50

MPV414 (antibody, V domains shown) VH: QVQLVQSGPEVKKPGSSVMVSCKTSGGNFNNFAISWVRQAPGQGLEWMGGIVPIFGTANYAQKSQDRVTITADPSSSTAYLQLSSLTSDDTAIYYCARDLGRSSNYYYYSVFESWGQGTLVTVSS VL: DIVMTQSPATLSLSPGERATLSCRASQSVGDKLAWYQQKPGQAPRLLIYGASTRATDIPARFSGSGSGTEFTLTVSSLQPEDFAVYYCQQYENWPPITFGQGTRLEIK = 1.8 µg/mL

Now turn to the next binder.
Specify reported EC50 for the binder shown: MPV485 (antibody, V domains shown) V domain 1: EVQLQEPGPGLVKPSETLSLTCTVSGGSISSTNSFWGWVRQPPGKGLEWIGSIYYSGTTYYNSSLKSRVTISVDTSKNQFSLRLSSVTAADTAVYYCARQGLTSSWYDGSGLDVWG V domain 2: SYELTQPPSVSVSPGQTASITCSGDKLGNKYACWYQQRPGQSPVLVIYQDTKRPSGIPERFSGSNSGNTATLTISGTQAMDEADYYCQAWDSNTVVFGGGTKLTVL
0.18 µg/mL
